# EXPERIMENT_DESCRIPTION: NCI Yeast Anticancer Drug Screen. Data for the mlh1 rad18 strain (AID 175)
# MEASUREMENT_CONDITIONS: S. cerevisiae mlh1 rad18 strain growth inhibition; at 50.0 µM (retest, dose inferred, filed as 5.0); active compounds read high
The panel holds about 79,000 compounds, 15% with a hit somewhere; the sample as a whole holds those more often.
# growth inhibition listing for each entry below
ATTRIBUTE_MEASURED: growth inhibition (%)

COMPOUND: CC1SC2=NC3=C(c4ccccc4C3=O)C(c3ccc(Cl)cc3)N2C1=O (centres undefined)
ATTRIBUTE_MEASURED: growth inhibition
UNITS: %
MEASURED_NUMBER: 91
--
COMPOUND: CC(=O)N(C1=CC(=O)c2ccccc2C1=O)c1ccc(C)cc1
ATTRIBUTE_MEASURED: growth inhibition
UNITS: %
MEASURED_NUMBER: 97
--
COMPOUND: CCOC(=O)C(=O)NNc1ccccc1
ATTRIBUTE_MEASURED: growth inhibition
UNITS: %
MEASURED_NUMBER: 95
--
COMPOUND: CN1C(=O)C(Cl)(C(Cl)(Cl)S(=O)(=O)O)C(=O)c2ccccc21 (centres undefined)
ATTRIBUTE_MEASURED: growth inhibition
UNITS: %
MEASURED_NUMBER: 97
--
COMPOUND: CN1c2ccccc2Sc2c1n[nH]c2-c1ccccc1
ATTRIBUTE_MEASURED: growth inhibition
UNITS: %
MEASURED_NUMBER: 91
--
COMPOUND: CCOP(=O)(OCC)C(NC(=O)OCC(Cl)(Cl)Cl)n1nnc(C(=O)OC)c1C(=O)OC (centres undefined)
ATTRIBUTE_MEASURED: growth inhibition
UNITS: %
MEASURED_NUMBER: 70
--
COMPOUND: O=C1NC(O)c2cccc(Cl)c2O1 (centres undefined)
ATTRIBUTE_MEASURED: growth inhibition
UNITS: %
MEASURED_NUMBER: 99
--
COMPOUND: CCN(CC)c1ccc(N=Nc2ccc(-c3nc4ccc[n+](C)c4s3)cc2)cc1
ATTRIBUTE_MEASURED: growth inhibition
UNITS: %
MEASURED_NUMBER: 99
--
COMPOUND: CC(c1ccccc1)n1c2ccccc2c2c(N)ncnc21 (centres undefined)
ATTRIBUTE_MEASURED: growth inhibition
UNITS: %
MEASURED_NUMBER: 99
--
COMPOUND: CCOC(=O)C1CC(C(=O)OCC)C(=O)C1=O (centres undefined)
ATTRIBUTE_MEASURED: growth inhibition
UNITS: %
MEASURED_NUMBER: 98
--
COMPOUND: N#CC(C#N)=C/C=C/c1c(Cl)cccc1Cl
ATTRIBUTE_MEASURED: growth inhibition
UNITS: %
MEASURED_NUMBER: 66
--
COMPOUND: C=CCNC(=S)N/N=C(\CCC)c1ccccn1
ATTRIBUTE_MEASURED: growth inhibition
UNITS: %
MEASURED_NUMBER: 95
--
COMPOUND: CC(C)/C(Cl)=N/OC(NC(=O)Nc1ccc(Cl)c(Cl)c1)(C(F)(F)F)C(F)(F)F
ATTRIBUTE_MEASURED: growth inhibition
UNITS: %
MEASURED_NUMBER: 99
--
COMPOUND: Cc1c2cnccc2c(C)c2c1c1ccccc1n2CCOC(=O)c1ccccc1
ATTRIBUTE_MEASURED: growth inhibition
UNITS: %
MEASURED_NUMBER: 87
--
COMPOUND: CC(=O)OC1CCC(C(C)(C)C)C(C)C1 (centres undefined)
ATTRIBUTE_MEASURED: growth inhibition
UNITS: %
MEASURED_NUMBER: 47
--
COMPOUND: CC(=O)N(C)c1ccc2c(c1)Cc1ccccc1-2
ATTRIBUTE_MEASURED: growth inhibition
UNITS: %
MEASURED_NUMBER: 30
--
COMPOUND: O=C(CN1CCCCC1)c1ccc(/C=C/c2ccc(Cl)cc2)cc1
ATTRIBUTE_MEASURED: growth inhibition
UNITS: %
MEASURED_NUMBER: 99
--
COMPOUND: O=Nc1ccc(O)c(/C=N/O)c1
ATTRIBUTE_MEASURED: growth inhibition
UNITS: %
MEASURED_NUMBER: 97
--
COMPOUND: Cc1ccccc1C1SCc2nc3ccccc3n21 (centres undefined)
ATTRIBUTE_MEASURED: growth inhibition
UNITS: %
MEASURED_NUMBER: -9
--
COMPOUND: CC(C)(C)OC(=O)N(CCCCNCc1ccc2ccccc2c1)CCCNCc1ccc2ccccc2c1
ATTRIBUTE_MEASURED: growth inhibition
UNITS: %
MEASURED_NUMBER: 99
--
COMPOUND: O=C(O)CN1CCNCCN(CC(=O)O)CCNCC1
ATTRIBUTE_MEASURED: growth inhibition
UNITS: %
MEASURED_NUMBER: 94
--
COMPOUND: CN1C(=O)c2cccc3cc([N+](=O)[O-])cc(c23)C1=O
ATTRIBUTE_MEASURED: growth inhibition
UNITS: %
MEASURED_NUMBER: 53
--
COMPOUND: COC1=CC(=O)C(O)=C/C1=C\C=C\c1ccccc1
ATTRIBUTE_MEASURED: growth inhibition
UNITS: %
MEASURED_NUMBER: 99
--
COMPOUND: Cc1ccc(C(=O)C(CCC#N)(CCC#N)CCC#N)cc1
ATTRIBUTE_MEASURED: growth inhibition
UNITS: %
MEASURED_NUMBER: -6
--
COMPOUND: O=C(O)CN(CCN1CC(=O)OC(=O)C1)CCN1CC(=O)OC(=O)C1
ATTRIBUTE_MEASURED: growth inhibition
UNITS: %
MEASURED_NUMBER: 41
--
COMPOUND: CCOc1ccccc1NC(=O)/C(Cl)=C(\Cl)C(=O)O
ATTRIBUTE_MEASURED: growth inhibition
UNITS: %
MEASURED_NUMBER: 100
--
COMPOUND: CCCCCCCCCCCCCCCCSC(=NC)NC
ATTRIBUTE_MEASURED: growth inhibition
UNITS: %
MEASURED_NUMBER: 98
--
COMPOUND: O=C(Cc1nc2ccccc2s1)Nc1cccc(C(F)(F)F)c1
ATTRIBUTE_MEASURED: growth inhibition
UNITS: %
MEASURED_NUMBER: 99
--
COMPOUND: CCc1ccc(C(=O)O)cc1
ATTRIBUTE_MEASURED: growth inhibition
UNITS: %
MEASURED_NUMBER: -3

Provenance of the data: PubChem BioAssay (NCI)
